# Test system: CYP2B
# PROTOCOL_DETAILS: Reversible inhibition kinetics (Lineweaver-Burk), CYP2B in RLMs
# Format: in vitro ADME, rat
# TEST_CONDITIONS: rat, rat liver microsomes, probe bupropion
RECORDED_ENDPOINT: Ki at 30 min (nM)
The response must be a number in nM with no trailing unit.

Data request: Give its Ki at 30 min value. Item: `Cc1ccc(Sc2ccccc2N2CCNCC2)c(C)c1`
Data returned: 2870

* * *

# SYSTEM_UNDER_TEST: CYP2B6 (Homo sapiens)
# PROTOCOL_DETAILS: IC50-shift experiment, CYP2B6 in HLMs
# Assay type: in vitro ADME
# Set-up: 0.20 mg/mL HLMs or 0.20 mg/mL RLMs; from tissue; host or cells: human liver microsomes
# TEST_CONDITIONS: 30 min preincubation with 1.0 mM NADPH, bupropion 40 μM
RECORDED_ENDPOINT: pIC50
// pIC50 here means minus log10 of the molar concentration (mol/L)

Data request: Reported pIC50 for Cc1ccc(Sc2ccccc2N2CCNCC2)c(C)c1 [vortioxetine] : what is it?
Data returned: 5.17

* * *

# SYSTEM_UNDER_TEST: CYP2C8 (Homo sapiens, UniProt P10632)
# Sequence (P10632 1-490): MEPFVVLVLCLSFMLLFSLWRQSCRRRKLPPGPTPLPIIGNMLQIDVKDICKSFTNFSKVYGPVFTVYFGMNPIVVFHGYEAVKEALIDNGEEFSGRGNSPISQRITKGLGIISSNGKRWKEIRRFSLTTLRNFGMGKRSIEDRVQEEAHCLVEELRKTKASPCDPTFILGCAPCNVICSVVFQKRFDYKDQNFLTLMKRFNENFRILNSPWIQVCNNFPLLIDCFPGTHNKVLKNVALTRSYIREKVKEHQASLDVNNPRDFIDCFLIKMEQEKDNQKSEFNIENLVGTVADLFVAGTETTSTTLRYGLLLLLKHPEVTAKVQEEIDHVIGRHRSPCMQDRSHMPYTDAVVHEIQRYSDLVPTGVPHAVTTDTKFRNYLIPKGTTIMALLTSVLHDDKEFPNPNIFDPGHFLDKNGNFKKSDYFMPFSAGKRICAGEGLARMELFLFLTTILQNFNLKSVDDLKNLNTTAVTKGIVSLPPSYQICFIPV
# PROTOCOL_DETAILS: IC50 of vortioxetine on CYP2C8 (amodiaquine) in HLMs
# Format: in vitro ADME
# Design: 0.20 mg/mL HLMs; from tissue; host or cells: human liver microsomes
# TEST_CONDITIONS: inhibitory effect (strength judged by IC50), HLMs
pIC50: −log10 of the molar value.
RECORDED_ENDPOINT: pIC50

Data request: Lab note: need pIC50 for `Cc1ccc(Sc2ccccc2N2CCNCC2)c(C)c1` on CYP2C8 (Homo sapiens, UniProt P10632), anyone have it?
Data returned: < 5.00

* * *

# SYSTEM_UNDER_TEST: CYP2C9 (Homo sapiens, UniProt P11712)
# Sequence (P11712 whole entry): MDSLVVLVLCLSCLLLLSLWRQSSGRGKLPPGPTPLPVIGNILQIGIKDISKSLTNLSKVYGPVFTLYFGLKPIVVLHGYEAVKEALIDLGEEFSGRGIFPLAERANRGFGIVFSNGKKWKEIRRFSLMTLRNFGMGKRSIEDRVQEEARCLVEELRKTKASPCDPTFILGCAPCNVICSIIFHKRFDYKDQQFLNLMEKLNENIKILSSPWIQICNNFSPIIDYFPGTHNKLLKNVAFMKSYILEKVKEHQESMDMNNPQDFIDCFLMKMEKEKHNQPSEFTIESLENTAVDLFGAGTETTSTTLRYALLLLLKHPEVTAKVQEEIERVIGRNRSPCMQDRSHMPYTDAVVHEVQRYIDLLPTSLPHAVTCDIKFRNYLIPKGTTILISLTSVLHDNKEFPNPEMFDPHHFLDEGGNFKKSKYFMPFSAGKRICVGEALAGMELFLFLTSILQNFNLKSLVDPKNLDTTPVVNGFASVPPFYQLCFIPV
# PROTOCOL_DETAILS: IC50-shift experiment, CYP2C9 in HLMs
# Assay type: in vitro ADME
# Parameters: 0.20 mg/mL HLMs or 0.20 mg/mL RLMs; from tissue; host or cells: human liver microsomes
# TEST_CONDITIONS: 30 min preincubation with 1.0 mM NADPH, losartan 8 μM
# Protocol: The components of the incubation system were as follows: 0.20 mg/mL HLMs or 0.20 mg/mL RLMs, 0.1 M Tris-HCl, vortioxetine, and the probe substrates of each enzyme. […] IC50-shift was used to investigate whether the drug produced time-dependent inhibition (TDI) of the enzyme. […] During the experiment, the individual substrates midazolam (4 μM), bupropion (40 μM), amodiaquine (3 μM), losartan (8 μM), mephenytoin (90 μM), and dextromethorphan (10 μM) were determined with vortioxetine IC50-shift in HLMs. […]
RECORDED_ENDPOINT: pIC50
Formally, pIC50 is defined as -log10 of the concentration c, with c in mol/L.

Data request: Look up pIC50: `Cc1ccc(Sc2ccccc2N2CCNCC2)c(C)c1`
Data returned: 4.78

* * *

# SYSTEM_UNDER_TEST: CYP2C19 (Homo sapiens, UniProt P33261)
# Sequence (P33261 whole entry): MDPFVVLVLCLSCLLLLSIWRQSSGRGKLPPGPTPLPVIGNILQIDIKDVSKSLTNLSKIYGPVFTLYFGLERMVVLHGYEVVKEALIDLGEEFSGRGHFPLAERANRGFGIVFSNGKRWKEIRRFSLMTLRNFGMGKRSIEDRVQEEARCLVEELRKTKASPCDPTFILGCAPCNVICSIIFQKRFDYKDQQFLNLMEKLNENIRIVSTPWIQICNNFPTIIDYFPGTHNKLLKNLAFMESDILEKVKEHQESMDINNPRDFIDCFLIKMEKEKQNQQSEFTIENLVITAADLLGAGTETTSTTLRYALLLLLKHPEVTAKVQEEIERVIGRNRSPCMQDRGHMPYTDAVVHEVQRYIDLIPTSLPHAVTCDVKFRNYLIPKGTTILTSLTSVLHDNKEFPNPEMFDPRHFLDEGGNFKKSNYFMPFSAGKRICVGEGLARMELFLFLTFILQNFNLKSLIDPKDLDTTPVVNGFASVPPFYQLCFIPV
# PROTOCOL_DETAILS: IC50-shift experiment, CYP2C19 in HLMs
# Type: in vitro ADME
# Parameters: 0.20 mg/mL HLMs or 0.20 mg/mL RLMs; from tissue; host or cells: human liver microsomes
# TEST_CONDITIONS: CYP2C19, 30 min preincubation with 1.0 mM NADPH, mephenytoin 90 μM
RECORDED_ENDPOINT: IC50 (µM)
Please reply with the bare figure in µM and do not write the unit itself.

Data request: For the molecule Cc1ccc(Sc2ccccc2N2CCNCC2)c(C)c1 [vortioxetine] , what IC50 is on record?
Data returned: 2.83

* * *

# Tested on: CYP2C-3
# PROTOCOL_DETAILS: IC50-shift experiment, CYP2C-3 in RLMs
# Assay type: in vitro ADME
# TEST_CONDITIONS: rat, rat liver microsomes, probe mephenytoin, ratio IC50 (−) NADPH to IC50 (+) NADPH, read-out: IC50 fold shift
RECORDED_ENDPOINT: IC50 shift at 30 min

Data request: # query: IC50 shift at 30 min of entry `Cc1ccc(Sc2ccccc2N2CCNCC2)c(C)c1`
Data returned: 4.72

* * *

# System: CYP2D
# PROTOCOL_DETAILS: IC50 of vortioxetine on CYP2D (dextromethorphan) in RLMs
# Assay type: in vitro ADME
# TEST_CONDITIONS: rat, rat liver microsomes, probe dextromethorphan, RLMs 0.20 mg/mL, dextromethorphan at Km, 37°C, 30 min, read-out: IC50
RECORDED_ENDPOINT: IC50 at 30 min (µM)
Give just the numeric value; µM need not be written.

Data request: What value of IC50 at 30 min has been reported for the following compound? Cc1ccc(Sc2ccccc2N2CCNCC2)c(C)c1 [vortioxetine]
Data returned: 15.7

* * *

# SYSTEM_UNDER_TEST: UniProtKB P11712
RECORDED_ENDPOINT: Ki (µM)
Lab book: enter the figure in µM, no units written.

Data request: Ki of Cc1ccc(Sc2ccccc2N2CCNCC2)c(C)c1 [vortioxetine] on UniProtKB P11712?
Data returned: 4.17

* * *

# Tested on: CYP2D
# PROTOCOL_DETAILS: IC50-shift experiment, CYP2D in RLMs
# Format: in vitro ADME
# TEST_CONDITIONS: rat, rat liver microsomes, probe dextromethorphan, 30 min preincubation without NADPH, dextromethorphan 20 μM
RECORDED_ENDPOINT: IC50 at 30 min (µM)
State just the number; it will be interpreted in µM.

Data request: Under CYP2D: IC50 at 30 min value of `Cc1ccc(Sc2ccccc2N2CCNCC2)c(C)c1` ?
Data returned: 3.35

* * *

# SYSTEM_UNDER_TEST: CYP2B6 (Homo sapiens)
# Sequence (P20813 1-491): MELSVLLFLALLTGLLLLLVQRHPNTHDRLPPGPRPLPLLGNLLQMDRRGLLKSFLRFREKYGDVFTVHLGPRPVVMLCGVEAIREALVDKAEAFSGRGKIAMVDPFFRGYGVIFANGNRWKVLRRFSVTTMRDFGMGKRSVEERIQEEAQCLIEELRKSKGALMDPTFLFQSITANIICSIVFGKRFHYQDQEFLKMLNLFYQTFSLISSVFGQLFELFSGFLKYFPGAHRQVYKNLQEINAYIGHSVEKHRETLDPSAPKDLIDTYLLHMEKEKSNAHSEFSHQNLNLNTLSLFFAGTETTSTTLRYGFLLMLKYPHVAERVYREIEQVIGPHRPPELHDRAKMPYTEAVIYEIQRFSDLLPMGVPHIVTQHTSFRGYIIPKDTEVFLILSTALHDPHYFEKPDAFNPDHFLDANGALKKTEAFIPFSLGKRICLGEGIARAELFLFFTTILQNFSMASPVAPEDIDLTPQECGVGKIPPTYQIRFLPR
RECORDED_ENDPOINT: pKi
Hey, just a heads up that pKi is the negative log base 10 of the concentration in molar.

Data request: Return reported pKi; argument: Cc1ccc(Sc2ccccc2N2CCNCC2)c(C)c1 [vortioxetine]
Data returned: 5.07

* * *

# SYSTEM_UNDER_TEST: CYP2B6 (Homo sapiens)
# PROTOCOL_DETAILS: IC50-shift experiment, CYP2B6 in HLMs
# Assay type: in vitro ADME
# Parameters: 0.20 mg/mL HLMs or 0.20 mg/mL RLMs; from tissue; host or cells: human liver microsomes
# TEST_CONDITIONS: 30 min preincubation without NADPH, bupropion 40 μM
# Description: The components of the incubation system were as follows: 0.20 mg/mL HLMs or 0.20 mg/mL RLMs, 0.1 M Tris-HCl, vortioxetine, and the probe substrates of each enzyme. […] IC50-shift was used to investigate whether the drug produced time-dependent inhibition (TDI) of the enzyme. […] During the experiment, the individual substrates midazolam (4 μM), bupropion (40 μM), amodiaquine (3 μM), losartan (8 μM), mephenytoin (90 μM), and dextromethorphan (10 μM) were determined with vortioxetine IC50-shift in HLMs. […]
RECORDED_ENDPOINT: IC50 (µM)
Please state the figure in µM; there is no need to write the unit.

Data request: I'd like to know its IC50. The compound in question is Cc1ccc(Sc2ccccc2N2CCNCC2)c(C)c1 [vortioxetine]
Data returned: 5.38
